# RUN CONDITIONS: buffer; pH 7.4; 200.0 µM
Below, each of the compounds is paired with its reported solubility kinetic value.
PROPERTY LABEL: solubility kinetic (µg/mL)

COMPOUND | SIGN QUALIFIER | MEASURED
O=C(NCCCO)C(=O)NCc1ccncc1 | > | 35.6
Cc1ccc(NC(=O)COc2ccccc2)cc1Cl | = | 2.4
Nc1ccc(-c2nc3ccccc3o2)cc1 | = | 20.8
O=C(NCc1ccccn1)C(=O)Nc1cccc2ccccc12 | = | 35.4
O=C(Cn1c(=O)oc2ccccc21)NCCc1ccccc1Cl | = | 1.5
Cc1ccc(S(=O)(=O)NCCNc2ccc([N+](=O)[O-])cc2)cc1 | = | 32.8
COCCCNC(=S)N/N=C/c1ccc(O)cc1 | > | 40.1
O=C(COC(=O)c1c(F)cccc1F)NCc1cccs1 | > | 46.7
Cc1[nH]c(=O)c(C#N)c(C)c1Cl | = | 26
Cc1ccc(NC(=O)NCC(c2ccccc2)N(C)C)cc1 (stereo not drawn) | > | 44.6
CCS(=O)(=O)N1CCN=C1SCc1ccc(F)cc1 | = | 39.9
Cc1ccc2[nH]cc(CCNC(=O)c3ccco3)c2c1 | = | 38.1
CC(C)(C)n1cnc2cc(NC(=O)c3cccs3)ccc21 | > | 44.9

###

# RUN CONDITIONS: buffer; pH 7.4; 200.0 µM
If the reported solubility kinetic equals or exceeds 0.03 mg/mL, assign Y. If not, assign N.

MOLECULE | LABEL
Cc1onc(-c2c(Cl)cccc2Cl)c1NC(=O)NC1CCSC1 (stereo not given) | Y
COc1ccc(C(=O)C2CCCN(C(=O)c3cnsn3)C2)c(C)c1 (stereo not given) | Y
O=C(CNC(=O)c1ccccc1F)NCc1ccccn1 | Y
Cc1ccc(N2C(=O)C3CCCN3C2=S)cc1 (stereo not given) | Y
Cc1ccc(CNC(=O)c2nccnc2C(=O)O)cc1 | Y
COCCNC(=O)/C(C#N)=C/c1cccc(OCc2ccccc2)c1 | N
O=C(Nc1cccc([N+](=O)[O-])c1)N1CCCc2ccccc21 | Y
C=CCn1c(SCC(=O)C23CC4CC(CC(C4)C2)C3)nc(O)cc1=O | Y
Cc1ccc(NC(=O)CCN2C(=O)c3ccccc3C2=O)c(C)c1 | N
CC(NC(=O)CN1C(=O)NC2(CCCC2)C1=O)c1ccc(Cl)cc1Cl (stereo not given) | Y
Cc1ccccc1C(=O)N1CCC(C(=O)Oc2ccc(C#N)cc2)CC1 | Y
Clc1ccccc1N=C1SCCS1 | N
c1ccc(-n2cnc3ccccc32)cc1 | N
Cc1ccc(NC(=S)N2CCCCCC2)cc1 | Y
O=C(NC(=S)NNC(=O)c1cccs1)c1ccccc1 | Y
O=C(CSc1nc2ccccc2[nH]1)NC1CCCC1 | Y
Cc1ccc(-c2cc(N)nc(-c3ccccc3)c2)cc1 | N
Cc1c(C(=O)Nc2c(C)n(C)n(-c3ccccc3)c2=O)oc2ccc(Cl)cc12 | Y
COc1ccc(/C=C2\N=C(SC)N(c3ccccc3OC)C2=O)cc1 | N
O=C(NCCOc1ccc(Cl)cc1)c1ccco1 | N
C[n+]1cccc2cccc([O-])c21.O | N
Cc1cccc(NC(=O)COc2ccc3c(c2)CCC3)n1 | N
COC(=O)c1cc(C(=O)Cc2ccccc2)c[nH]1 | Y
O=C(c1ccc2ccccc2c1)N1CCN(Cc2ccccc2)CC1 | Y
Cc1cc(-c2csc(Nc3ccccn3)n2)ccc1F | N

###

# RUN CONDITIONS: buffer; pH 7.4; 200.0 µM
Below, each of the compounds is paired with its reported solubility kinetic value.
PROPERTY LABEL: solubility kinetic (µg/mL)

COMPOUND | PROPERTY LABEL | SIGN QUALIFIER | MEASURED
CCn1c(SCCN2CCOCC2)nc2c1c(=O)n(C)c(=O)n2C | solubility kinetic | > | 53
Cc1cccc2cc(C#N)c(N3CCC(O)CC3)nc12 | solubility kinetic | = | 34.3
C=CCn1c2[n+](c3ccccc3c1=O)CCCCC2.[I-] | solubility kinetic | = | 41.6
Cc1[nH]c(=O)c(S(=O)(=O)c2ccccc2)c(C)c1Cl | solubility kinetic | = | 44.2
CC(C)OP(=O)(OC(C)C)C(O)c1ccc(N(C)C)cc1 (stereo unspecified) | solubility kinetic | > | 47.3
CC1(C)CC(=O)C(C(N)=NC(=O)c2ccc([N+](=O)[O-])cc2)=C(O)C1 | solubility kinetic | = | 0.7
CC(=O)Nc1ccc(SCC(=O)NCC2(N3CCCCC3)CCCCC2)cc1 | solubility kinetic | > | 60.5
O=C(COC(=O)Cc1c[nH]c2ccccc12)Nc1ccccc1C(F)(F)F | solubility kinetic | > | 56.5
Cc1cccc(CC(=O)NC2CCCCCC2)c1 | solubility kinetic | = | 30.5
CC1CCN(C(=O)CNC(=O)c2cccc(OC(F)F)c2)CC1 | solubility kinetic | > | 49
CS(=O)(=O)N(CC(=O)N1CCOCC1)c1ccccc1Br | solubility kinetic | > | 56.6

###

# RUN CONDITIONS: buffer; pH 7.4; 200.0 µM
Reported solubility kinetic maps to class as: I: < 20 µg/mL; II: ≥ 20 µg/mL and < 40 µg/mL; III: ≥ 40 µg/mL

MOLECULE | LABEL
Cc1cc(C)c(S(=O)(=O)c2cc(F)ccc2C)c(Cl)n1 | III
Cc1ccc(-c2nc(C(=O)O)cs2)cc1 | II
COC(/C(=N/O)c1ccc(Cl)cc1)c1ccccc1 (stereo not given) | II
CCc1c(C(=O)NC(C)C2CCCO2)csc1C (stereo not given) | II
CCN1CCc2c(OCC(=O)N3CCCCC3)cccc2C1=O | III
O=C(Cc1cccc(C(F)(F)F)c1)NCc1cccnc1 | III
O=C(OCC(=O)N1CCCC1)c1ccc(Cl)nc1 | III
Cn1cc(S(=O)(=O)N2CCNCC2)cc1C(N)=O | III
CC(Sc1nncn1C)C(=O)Nc1ccc(S(N)(=O)=O)cc1 (stereo not given) | III
CNC(=S)Nc1cc2oc3ccccc3c2cc1OC | II
COc1ccc(C(C)=O)cc1Cn1c(=O)cc(C)[nH]c1=O | III
CCCCn1c(=O)[nH]c(=O)c2c1nc(-c1cccc(OC)c1)n2C | I
CCc1noc(C)c1C(=O)Nc1ccccc1N1CCOCC1 | III
COc1ccc(C(O)C(C)NC(C)C(O)c2ccc(OC)cc2)cc1 (stereo not given) | III
O=C(NCCc1ccccc1)c1ccc(-c2ccc(F)cc2)o1 | I
COc1cccc(N2CCN(C(=O)CCNS(=O)(=O)c3ccc(F)c(F)c3)CC2)c1 | III
Cc1nc(=O)c(-c2ccccc2)c(C)n1-c1ccccc1 | III
Cn1c(CO)cnc1S(=O)(=O)Cc1ccc(Cl)cc1 | III
CCOC(=O)c1c(-c2cccc(N)c2)cn2ccccc12 | II
O=C(COC(=O)C1CC2CCCC(C1)C2=O)Nc1cccc(F)c1 (stereo not given) | III
CCOc1ccccc1OCCCC(=O)Nc1cc(S(=O)(=O)N2CCOCC2)ccc1OC | I
O=C(/C=C/c1ccc(Cl)c(Cl)c1)NCCCn1ccnc1 | II
O=S(=O)(Nc1ccc(F)cc1)c1cccc2nsnc12 | III
CC1CCCCN1C(=O)CCS(=O)(=O)Cc1ccccc1 (stereo not given) | II
O=C(CCc1ccccc1)N/N=C/c1cccc(O)c1 | III
Cc1ccc(C(=O)N/C(=C\c2ccco2)C(=O)N2CCOCC2)cc1C | III
O=C(NCC(=O)N1CCCC1)c1ccc(Br)o1 | III
O=C1CC(N2CCSCC2)C(=O)N1c1cccc(Cl)c1 (stereo not given) | III
Cc1ccc(NC(=O)Cn2nc(C)c(S(=O)(=O)N(C)C)c2C)cc1 | III
CNC(=O)c1ccccc1S(=O)c1ccccc1COC(C)=O (stereo not given) | III
Cl.O=C(c1cc2ccccc2o1)N1CCN(Cc2ccccc2)CC1 | III
CNc1nc(NCc2ccccc2)nc(N)c1[N+](=O)[O-] | I
N#C/C(=C\c1ccncc1)C(=O)Nc1ccc(C(=O)O)cc1 | III
Cc1cc(C)cc(C(=O)NCC(=O)N2CCC(C(N)=O)CC2)c1 | III
O=S(=O)(c1cccc2cccnc12)N1CCCc2ccccc21 | I
COc1ccccc1Nc1nc(N)nc(CN2CCCCC2)n1 | III
CCN(CC(=O)NCc1ccc2c(c1)OCO2)S(=O)(=O)c1ccc(F)cc1 | III
COc1ccc(CC(=O)NCc2ccc3c(c2)cc(C)n3C)cc1OC | II
Cc1sc2ncnc(SCC(=O)NC(C)(C)C)c2c1C | I
COc1ccc(OCCNC(=O)c2ccccc2Cl)cc1 | III
Brc1cccc(CN2CCN(c3ncccn3)CC2)c1 | II
O=C(Nc1ccc(S(=O)(=O)N2CCCCC2)cc1)C1CCCCC1 | I
CC(C)c1ccc(NC(=O)COc2ccccc2)cc1 | I
Clc1ncc(CSc2ccccc2)s1 | I

src = PubChem BioAssay AID1996
